B1: library; numbered along this chain (parent)
chain: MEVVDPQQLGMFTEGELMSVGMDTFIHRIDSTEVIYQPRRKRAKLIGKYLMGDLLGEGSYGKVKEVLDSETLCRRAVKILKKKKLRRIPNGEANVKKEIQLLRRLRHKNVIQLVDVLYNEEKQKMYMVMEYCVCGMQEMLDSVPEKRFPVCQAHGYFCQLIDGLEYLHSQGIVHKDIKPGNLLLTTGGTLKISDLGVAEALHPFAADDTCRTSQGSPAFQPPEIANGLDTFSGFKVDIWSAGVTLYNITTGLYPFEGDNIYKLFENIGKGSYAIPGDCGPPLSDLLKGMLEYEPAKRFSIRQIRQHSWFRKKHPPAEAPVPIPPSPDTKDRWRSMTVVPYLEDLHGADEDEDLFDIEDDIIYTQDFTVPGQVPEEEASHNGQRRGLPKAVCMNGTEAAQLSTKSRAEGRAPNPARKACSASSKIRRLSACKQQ

variants of: B1; assay: STK11 functional score (HeLa growth suppression), rescaled enrichment; synonymous median = 1, nonsense median = 0 (normalised score); conditions: with HeLa; variant type: missense
Outcome label depends on STK11 functional score relative to 1: at/above gives Satisfied, below gives Not satisfied.

Asked: Does the reported STK11 functional score for V95S fall at or above the 1 mark?
Given back: Satisfied

Asked: Is reported STK11 functional score greater than or equal to 1 here: A389H
Given back: Satisfied

Asked: Form field: STK11 functional score at least 1? Entry: D207N
Given back: Not satisfied

Asked: Quick check, STK11 functional score >= 1? D53G
Given back: Not satisfied

Asked: Given the entry R405H , answer whether its STK11 functional score meets or surpasses 1.
Given back: Satisfied

Asked: Assess whether reported STK11 functional score for K311R sits at 1 or higher.
Given back: Satisfied

Asked: Exam item: decide whether the reported STK11 functional score for V77T is at least 1.
Given back: Satisfied

Asked: Assess whether reported STK11 functional score for Y49D sits at 1 or higher.
Given back: Not satisfied

Asked: Item Q7R with STK11 functional score of 1 or above?
Given back: Satisfied

Asked: Is STK11 functional score at least 1? Consider Q432W
Given back: Satisfied

Asked: Say whether E375V shows STK11 functional score of 1 or more.
Given back: Satisfied

Asked: Given S69V , state whether its STK11 functional score is at least 1.
Given back: Not satisfied

Asked: Hello, I need to know if E199W has measured STK11 functional score not below 1. Thanks!
Given back: Not satisfied

Asked: Would you say Y261H shows STK11 functional score at minimum 1?
Given back: Not satisfied

Asked: Does STK11 functional score meet or surpass 1 for P6F ?
Given back: Not satisfied

Asked: Check if STK11 functional score >= 1 (inclusive). Item: S299E
Given back: Satisfied

Asked: Quick check, STK11 functional score >= 1? P38S
Given back: Satisfied

Asked: Is it the case that H154Y has STK11 functional score reaching or exceeding 1?
Given back: Satisfied

Asked: Decide: is the reported value of STK11 functional score for Y118M equal to or greater than 1?
Given back: Satisfied

Asked: Does STK11 functional score meet or surpass 1 for G370E ?
Given back: Satisfied

Asked: Reported STK11 functional score at or above 1? S213P
Given back: Satisfied
